# Test Method Notes: NCI Yeast Anticancer Drug Screen. Data for the rad50 strain (AID 155);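 also: 0% = growth of vehicle-only cultures of the same strain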
# Settings: S. cerevisiae rad50 strain growth inhibition; at 50.0 µM
Compounds without any hit were thinned out: in the full panel of roughly 79,000, 15% have a hit. The source made the active and inactive calls. Rule as the data show it: active = growth inhibition above about 70%; inactive = the rest.
Output constraint: value belongs to 1 (yes) for active, 0 (no) for inactive

• CCc1cccc(C(C)C)c1N1C(=O)C(=O)C(c2nc3ccccc3s2)C(=O)C1=O = 1 (yes)
• CCCCCCCC[N+](C)(CCCCCCCC)CCCCCCCC = 1 (yes)

Outcome logged for O=C1OCC2=C1C(c1ccc(Cl)cc1)c1cc3c(cc1O2)OCO3 (stereo not given) in this assay:
0 (no)

What classification did CC(C)(CC#N)c1cc(CC(C)(C)c2cc(CC(C)(C)c3cc(CC(C)(C)C4(C)OCCO4)no3)no2)no1 end up with in this test?
0 (no)

# lookup: test call for O=C(O)C(=O)Cc1ccccc1[N+](=O)[O-]
1 (yes)
